The measurements presented in this section are drawn from ChEMBL document CHEMBL3232870.

- experimentSummary: AUC in ICR mouse at 3 mg/kg, iv and 10 mg/kg, po
- Type: ADME, organism-based
- experimentalConditions: plasma
propertyName: AUC (ng·h/mL)

{"smilesStructure": "COCCOCn1ccc(NC(=O)c2cc(Oc3ccc(S(C)(=O)=O)cc3)cc(-c3ncccc3C)c2)n1", "propertyName": "AUC", "observedValue": 11900}

====

- experimentSummary: Tmax in Sprague-Dawley rat at 3 mg/kg, iv and 10 mg/kg, po
- Format: ADME, organism-based
- experimentalConditions: in vivo
propertyName: Tmax (min)

{"smilesStructure": "COCCOCn1ccc(NC(=O)c2cc(Oc3ccc(S(C)(=O)=O)cc3)cc(-c3ncccc3C)c2)n1", "propertyName": "Tmax", "observedValue": 25.2}

====

- experimentSummary: AUC (0 to t) in female Sprague-Dawley rat at 500 mg/kg, po measured on day 1
- Assay type: ADME, organism-based
- Parameters: dose 500 mg/kg, route oral
- experimentalConditions: plasma

{"smilesStructure": "COCCOCn1ccc(NC(=O)c2cc(Oc3ccc(S(C)(=O)=O)cc3)cc(-c3ncccc3C)c2)n1", "AUC(0-t)": "19800 ng·h/mL"}

====

- experimentSummary: Oral bioavailability in Sprague-Dawley rat at 10 mg/kg
- Type: ADME, organism-based
- experimentalConditions: in vivo
propertyName: bioavailability (%)

{"smilesStructure": "COCCOCn1ccc(NC(=O)c2cc(Oc3ccc(S(C)(=O)=O)cc3)cc(-c3ncccc3C)c2)n1", "propertyName": "bioavailability", "observedValue": 22}

====

- experimentSummary: AUC (0 to t) in male Sprague-Dawley rat at 500 mg/kg, po measured on day 1
- Assay type: ADME, organism-based
- Set-up: dose 500 mg/kg, route oral
- experimentalConditions: plasma

{"smilesStructure": "COCCOCn1ccc(NC(=O)c2cc(Oc3ccc(S(C)(=O)=O)cc3)cc(-c3ncccc3C)c2)n1", "AUC(0-t) [ng·h/mL]": 16900}

====

- experimentSummary: Oral bioavailability in ICR mouse at 10 mg/kg
- Format: ADME, organism-based
- experimentalConditions: in vivo

{"smilesStructure": "COCCOCn1ccc(NC(=O)c2cc(Oc3ccc(S(C)(=O)=O)cc3)cc(-c3ncccc3C)c2)n1", "bioavailability (%)": 24}

====

- experimentSummary: AUC (0 to t) in female Sprague-Dawley rat at 1000 mg/kg, po measured on day 1
- Type: ADME, organism-based
- Set-up: dose 1000 mg/kg, route oral
- experimentalConditions: plasma

{"smilesStructure": "COCCOCn1ccc(NC(=O)c2cc(Oc3ccc(S(C)(=O)=O)cc3)cc(-c3ncccc3C)c2)n1", "AUC(0-t), µg·h/mL": 29.2}

====

- experimentSummary: Mean residence time in Sprague-Dawley rat at 3 mg/kg, iv and 10 mg/kg, po
- Type: ADME, organism-based
- experimentalConditions: in vivo

{"smilesStructure": "COCCOCn1ccc(NC(=O)c2cc(Oc3ccc(S(C)(=O)=O)cc3)cc(-c3ncccc3C)c2)n1", "MRT [min]": 22.2}

====

- experimentSummary: AUC (0 to t) in male Sprague-Dawley rat at 1000 mg/kg, po measured on day 1
- Format: ADME, organism-based
- Set-up: dose 1000 mg/kg, route oral
- experimentalConditions: plasma

{"smilesStructure": "COCCOCn1ccc(NC(=O)c2cc(Oc3ccc(S(C)(=O)=O)cc3)cc(-c3ncccc3C)c2)n1", "AUC(0-t)": "35400 ng·h/mL"}

====

- experimentSummary: Cmax in Sprague-Dawley rat at 3 mg/kg, iv and 10 mg/kg, po
- Assay type: ADME, organism-based
- experimentalConditions: in vivo

{"smilesStructure": "COCCOCn1ccc(NC(=O)c2cc(Oc3ccc(S(C)(=O)=O)cc3)cc(-c3ncccc3C)c2)n1", "Cmax [ng/mL]": 3700}

====

- experimentSummary: AUC (0 to t) in female Sprague-Dawley rat at 500 mg/kg, po measured on day 14
- Type: ADME, organism-based
- Parameters: dose 500 mg/kg, route oral
- experimentalConditions: plasma

{"smilesStructure": "COCCOCn1ccc(NC(=O)c2cc(Oc3ccc(S(C)(=O)=O)cc3)cc(-c3ncccc3C)c2)n1", "AUC(0-t) / ng·h/mL": 16300}

====

- experimentSummary: Aqueous solubility of the compound in phosphate buffer at pH 7.4
- Assay type: physicochemical

{"smilesStructure": "COCCOCn1ccc(NC(=O)c2cc(Oc3ccc(S(C)(=O)=O)cc3)cc(-c3ncccc3C)c2)n1", "solubility": "122 µM"}

====

- systemUnderTest: Hexokinase-4 (Homo sapiens)
- Sequence (P35557 whole entry): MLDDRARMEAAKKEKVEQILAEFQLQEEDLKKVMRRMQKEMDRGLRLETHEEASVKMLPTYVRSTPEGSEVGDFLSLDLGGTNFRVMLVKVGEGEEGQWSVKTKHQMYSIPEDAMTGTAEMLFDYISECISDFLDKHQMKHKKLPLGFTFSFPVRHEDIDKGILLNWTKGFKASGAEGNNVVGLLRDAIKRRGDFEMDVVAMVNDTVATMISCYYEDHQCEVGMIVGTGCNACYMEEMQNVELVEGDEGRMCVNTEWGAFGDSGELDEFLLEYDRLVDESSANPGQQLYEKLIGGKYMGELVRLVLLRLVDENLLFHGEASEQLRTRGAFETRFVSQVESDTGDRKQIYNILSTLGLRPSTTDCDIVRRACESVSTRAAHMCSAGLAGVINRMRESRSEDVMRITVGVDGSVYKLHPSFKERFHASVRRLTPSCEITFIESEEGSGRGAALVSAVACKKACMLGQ
- experimentSummary: Activation of recombinant human pancreatic glucokinase using 10 mM glucose by spectrophotometry
pEC50: −log10 of the molar value.
Reported pEC50 by item:
propertyName: pEC50

{"smilesStructure": "CCCNCc1csc(NC(=O)c2cc(Oc3ccc(S(C)(=O)=O)cc3)cc(-c3ncccc3C)c2)n1", "censoringSign": "<", "observedValue": 4.30}
{"smilesStructure": "Cc1cccnc1-c1cc(Oc2ccc(S(C)(=O)=O)cc2)cc(C(=O)Nc2ccn(C)n2)c1", "censoringSign": "=", "observedValue": 6.09}
{"smilesStructure": "COCCOCn1ccc(NC(=O)c2cc(Oc3ccc(S(C)(=O)=O)cc3)cc(-c3ncccc3C)c2)n1", "censoringSign": "=", "observedValue": 6.50}
{"smilesStructure": "Cc1cccnc1-c1cc(Oc2ccc(S(C)(=O)=O)cc2)cc(C(=O)Nc2nc(CNC(C)C)cs2)c1", "censoringSign": "=", "observedValue": 6.33}
